System: SN12C renal
Test: NCI-60 one-dose screen, 48 h (100 = growth as untreated, 0 = no growth, -100 = all killed)
Conditions: 10 µM unless noted
About 83,000 compounds went through this panel and 20% of them were active in at least one assay; those are over-represented in the sample as a whole.
Please use Yes for growth under 80% and No for everything else, ties included.

Q: Bench note: check whether CN1CCN(CCNc2nc(-c3cccc(NS(=O)(=O)c4cccc5c(N(C)C)cccc45)c3)cs2)CC1 shows growth below 80%
A: Yes

Q: Bench note: check whether CC(C)(C)Nc1nc2c(OCCc3ccccc3)cccn2c1-c1ccc([N+](=O)[O-])cc1 shows growth below 80%
A: Yes

Q: Bench note: check whether CCCCc1nc2c(N)nc3ccccc3c2n1Cc1cccc(CN)c1 shows growth below 80%
A: Yes

Q: Bench note: check whether C/C(=N\NC(N)=S)c1nnn(-c2ccc([N+](=O)[O-])cc2)c1C shows growth below 80%
A: No

Q: Bench note: check whether Cc1ccc2c(n1)C(=O)C(Cl)=C(Nc1cccc(C)c1C)C2=O shows growth below 80%
A: Yes

Q: Bench note: check whether C#CCOc1ccc(-c2csc(NC(=O)C=C)n2)cc1NS(=O)(=O)c1cccc2c(N(C)C)cccc12 shows growth below 80%
A: Yes

Q: Bench note: check whether O=C1CSC(c2cn(-c3ccccc3)nc2-c2ccc(Cl)cc2)N1c1ccccc1 (stereo unspecified) shows growth below 80%
A: No

Q: Bench note: check whether CCN(CC)CCOc1ccc(C(=C(c2ccccc2)C2CCCC2)c2ccc(OCCN(CC)CC)cc2)cc1 shows growth below 80%
A: Yes

Q: Bench note: check whether O=C(Nc1cc(C(F)(F)F)cc(C(F)(F)F)c1)Nc1ccc2oc(=O)ccc2c1 shows growth below 80%
A: Yes

Q: Bench note: check whether C#Cc1nc(/C=C/C(=O)NO)cs1 shows growth below 80%
A: No

Q: Bench note: check whether C=C(C)[C@@H]1CC[C@]2(COP(=O)(OCC)OCC)CC[C@]3(C)[C@H](CC[C@@H]4[C@@]5(C)CC[C@H](OP(=O)(OCC)OCC)C(C)(C)[C@@H]5CC[C@]43C)[C@@H]12 shows growth below 80%
A: Yes

Q: Bench note: check whether COc1cc(C(=O)c2cc(C(C)=O)c3cccc(C)n23)cc(OC)c1OC shows growth below 80%
A: Yes

Q: Bench note: check whether CCCCOc1ccc(S(=O)(=O)N2CCN(c3nc(C)cc(N4CCOCC4)n3)CC2)cc1 shows growth below 80%
A: Yes

Q: Bench note: check whether NS(=O)(=O)c1nnc(/N=C/c2c(O)[nH]c3ccccc23)s1 shows growth below 80%
A: No

Q: Bench note: check whether O=C(O)CC1CCN(c2ccc3nnc(Cl)n3n2)CC1 shows growth below 80%
A: No

Q: Bench note: check whether Brc1ccc(-c2cc(-c3ccc4c(c3)OCCO4)n[nH]2)s1 shows growth below 80%
A: Yes

Q: Bench note: check whether CN1CCN(c2ccc(Nc3nc(NCCCNS(=O)(=O)c4cccc5ccccc45)c4sccc4n3)cc2)CC1 shows growth below 80%
A: Yes

Q: Bench note: check whether CC(C)Sc1nc(-c2ccccc2)c(C#N)c(N2CCOCC2)n1 shows growth below 80%
A: Yes

Q: Bench note: check whether O=C(/C=C/c1ccccc1Cl)Nc1ncc(Cc2cc(Cl)ccc2Cl)s1 shows growth below 80%
A: Yes

Q: Bench note: check whether Cc1ccsc1[C@H]1c2[nH]c3ccccc3c2C[C@H]2C(=O)N(CCCCCCC(=O)NO)CC(=O)N12 shows growth below 80%
A: No

====

Tested on: SK-MEL-2 melanoma
Experiment: NCI-60 one-dose screen, 48 h (100 = growth as untreated, 0 = no growth, -100 = all killed)
Conditions: 10 µM unless noted
Compounds without any hit were thinned out: in the full panel of roughly 83,000, 20% have a hit.
For each of the molecules below, state its growth.
Numeric answer only, unit % assumed.

Q: Return reported growth; argument: C#C[C@]1(O)CC[C@H]2[C@@H]3CC=C4c5sc(Nc6cc(C)cc(C)c6)nc5CC[C@]4(C)[C@H]3CC[C@@]21C
A: 14

Q: Return reported growth; argument: NC(=O)c1ncn2c(=O)n(CCF)nnc12
A: -6.14

Q: Return reported growth; argument: CN1CC[C@@H]2[C@@]3(C)CC[C@H](O)C(C)(C)[C@@H]3CC[C@@]2(C)[C@]2(C)CC[C@@]3(CO)CCC(C)(C)C[C@@H]3C12 (some centres not stated)
A: 102

Q: Return reported growth; argument: O=C(/C=C/c1ccccc1)c1cccc(O)c1
A: 108

Q: Return reported growth; argument: COc1ccc(C2C(C#N)=C(/N=C/c3ccc(Cl)cc3)Oc3c2sc2c(C)cccc32)cc1 (configuration not stated)
A: -12.9

Q: Return reported growth; argument: NCCNC(=O)c1cccc(COc2ccccc2NC(=O)c2cc(Br)c(Br)[nH]2)c1
A: 101

Q: Return reported growth; argument: Cn1cc(-c2nnc(N)nc2-c2c[nH]c3ccc(F)cc23)c2cc(Br)ccc21
A: 11.8

Q: Return reported growth; argument: C#CCN(C)CCCOc1ccc(NCc2ccc(C(=O)NO)cc2)cc1Cl
A: 15

Q: Return reported growth; argument: O=S(=O)(NCCCNc1nccc(-c2[nH]c(-c3ccccc3)nc2-c2ccc(F)c(O)c2)n1)c1ccc(C(F)(F)F)cc1
A: 18.8

Q: Return reported growth; argument: NC1CC2(CCN(c3cnc(C(=O)Nc4cc(F)cc5cccnc45)cn3)CC2)C1
A: 101

Q: Return reported growth; argument: CC(=O)N1N=C(c2cc3ccccc3oc2=O)CC1c1cn(-c2ccccc2)nc1-c1ccc(C)cc1 (configuration not stated)
A: 108

Q: Return reported growth; argument: Cc1ccc(/C(N)=N/C(N)=N/c2nc3ccccc3s2)cc1
A: 114

Q: Return reported growth; argument: CC(C)Sc1nc(-c2ccccc2)c(C#N)c(N2CCOCC2)n1
A: 128

Q: Return reported growth; argument: CCCCCCNC(=O)Oc1ccc(/C(=C(/C)c2ccc(OC)cc2)c2ccc(OCCN3CCCCCC3)cc2)cc1
A: 74.5

Q: Return reported growth; argument: O=C(NNc1nc2cc(F)cc(F)c2n2cccc12)c1cccnn1
A: 20.8

Q: Return reported growth; argument: CC/C(=C(/c1ccc(Cl)cc1)c1ccc(OCCN)cc1)c1ccccc1
A: 105

Q: Return reported growth; argument: CN1CCN(Cc2ccc(/C=N/Nc3ccnc4cc(Cl)ccc34)cc2)CC1
A: 113

Q: Return reported growth; argument: Cc1csc(/N=C(N)/N=C(\N)c2cccs2)n1
A: 106

Q: Return reported growth; argument: CN1CCN(Cc2ccc(NC(=O)c3cncc(C#Cc4cnc5ccc(N6CCOCC6)nn45)c3)cc2C(F)(F)F)CC1
A: -88.3

Q: Return reported growth; argument: Cc1ccc(C(=O)Nc2ccc(CNCCN3CCOCC3)c(C(F)(F)F)c2)cc1C#Cc1cnc2cccnn12
A: -7.32

Q: Return reported growth; argument: CN1CCN(CC#CCn2c3c(c4ccccc42)C[C@]2(C)[C@H]4CC=C5[C@@H]6CC(C)(C)CC[C@]6(C(=O)N6CCOCC6)CC[C@@]5(C)[C@]4(C)CC[C@H]2C3(C)C)CC1
A: 119

Q: Return reported growth; argument: CC(O)c1cccc(/C(N)=N/C(N)=N/c2nc3ccccc3s2)c1 (configuration not stated)
A: 107

Q: Return reported growth; argument: COCCOc1ccc2ncc(C#Cc3cncc(C(=O)Nc4ccc(CN5CCN(C)CC5)c(C(F)(F)F)c4)c3)n2n1
A: -82.7

Q: Return reported growth; argument: CN1CCN(Cc2ccc(NC(=O)c3cncc(C#Cc4cnc5ccc(NCCO)nn45)c3)cc2C(F)(F)F)CC1
A: -89

Q: Return reported growth; argument: COc1ccc(NC2=C(Br)C(=O)C(C)=C(C)C2=O)cc1OC
A: 106

Q: Return reported growth; argument: COc1cc2cc(Oc3ccc(NC(=O)c4cc(C(F)(F)F)cc(C(F)(F)F)c4)cc3)c(C)nc2cc1OCCN1CCOCC1
A: 101

Q: Return reported growth; argument: O=S(=O)(NCCCNc1nccc(-c2[nH]c(-c3ccccc3)nc2-c2ccc(F)c(O)c2)n1)c1cccc2ccccc12
A: 17.1

====

For each of the compounds below, state its growth.
System: PC-3 prostate
Assay: NCI-60 one-dose screen, 48 h (100 = growth as untreated, 0 = no growth, -100 = all killed)
Details: 10 µM unless noted
The panel holds about 83,000 compounds, 20% with a hit somewhere; the sample as a whole holds those more often.
Numeric answer only, unit % assumed.

Q: Return reported growth; argument: C#CCN(C)CCCOc1ccc(NCc2ccc(C(=O)NO)cc2)cc1Cl
A: 29.4

Q: Return reported growth; argument: C[C@H]1OCC2(CCN(c3cnc(C(=O)Nc4cc(F)cc5cccnc45)cn3)CC2)[C@H]1N
A: 50.8

Q: Return reported growth; argument: C#C[C@]1(O)CC[C@H]2[C@@H]3CC=C4c5sc(NCc6ccccc6)nc5CC[C@]4(C)[C@H]3CC[C@@]21C
A: 15.3
